meta.source: patent US20240376084A1

# system: S. aureus Alpha hemolysin (Staphylococcus aureus, UniProt P09616)
# Sequence (P09616 27-319 limits assumed): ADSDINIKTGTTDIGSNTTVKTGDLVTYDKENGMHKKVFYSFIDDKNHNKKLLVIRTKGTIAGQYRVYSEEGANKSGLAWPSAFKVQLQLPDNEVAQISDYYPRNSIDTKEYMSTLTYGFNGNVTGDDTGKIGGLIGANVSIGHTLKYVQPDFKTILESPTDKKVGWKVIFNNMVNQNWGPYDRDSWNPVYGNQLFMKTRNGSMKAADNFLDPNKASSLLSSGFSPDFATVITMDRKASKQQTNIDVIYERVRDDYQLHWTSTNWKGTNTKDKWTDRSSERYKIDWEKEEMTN
# experimentSummary: cell-based
# measurementParameters: A549-LDH Assay activity
measureName: EC50

Record excerpt, results attached:
Cc1cc2[nH]c(=O)c(=O)[nH]c2cc1S(=O)(=O)Nc1ccc(-c2ccc3c(c2)ncn3C)c(Cl)c1 [Compound 283] :: 100 to 1000 nM
Cc1cc2[nH]c(=O)c(=O)[nH]c2cc1S(=O)(=O)Nc1ccc(-c2ccc(F)c(C#N)c2)c(Cl)c1 [Compound 393] :: 100 to 1000 nM
O=c1[nH]c2cc(Cl)c(S(=O)(=O)Nc3ccc(-c4ccsc4)c(Cl)c3)cc2[nH]c1=O [Compound 32] :: 100 to 1000 nM

Lab note: next compound to report on.
# get_value(readout= EC50, system= S. aureus Alpha hemolysin (Staphylococcus aureus, UniProt P09616)) for Cc1cc2[nH]c(=O)c(=O)[nH]c2cc1S(=O)(=O)Nc1ccc(C(F)(F)F)cc1 [Compound 50] 30 to 100 nM

----------
# system: S. aureus Alpha hemolysin (Staphylococcus aureus, UniProt P09616)
# experimentSummary: cell-based
# measurementParameters: A549-LDH Assay activity
measureName: EC50

O=c1[nH]c2cc(F)c(S(=O)(=O)Nc3ccc(-c4ccc(F)cc4)c(Cl)c3)cc2[nH]c1=O :: 0.03 to 0.1 µM
Cc1cc2[nH]c(=O)c(=O)[nH]c2cc1S(=O)(=O)Nc1ccc(-c2cc(F)cc(F)c2)c(Cl)c1 :: 0.1 to 1 µM

Name the recorded EC50 for Cc1cc2[nH]c(=O)c(=O)[nH]c2cc1S(=O)(=O)Nc1ccc(-c2cccs2)c(Cl)c1 . 0.03 to 0.1 µM

Name the recorded EC50 for Cc1cc2[nH]c(=O)c(=O)[nH]c2cc1S(=O)(=O)Nc1ccc(-c2ccc(S(C)(=O)=O)cc2)c(Cl)c1 . 1 to 6 µM

Name the recorded EC50 for Cc1ccc(-c2ccc(NS(=O)(=O)c3cc4[nH]c(=O)c(=O)[nH]c4cc3Cl)cc2Cl)o1 . 1 to 6 µM

Name the recorded EC50 for O=c1[nH]c2cc(Cl)c(S(=O)(=O)Nc3ccc(-c4ccc(F)cc4)c(Cl)c3)cc2[nH]c1=O . 0.1 to 1 µM

Name the recorded EC50 for Cc1cc(NS(=O)(=O)c2cc3[nH]c(=O)c(=O)[nH]c3cc2C)ccc1Br . 0.03 to 0.1 µM

Name the recorded EC50 for Cc1cc2[nH]c(=O)c(=O)[nH]c2cc1S(=O)(=O)Nc1ccc(-c2ccccc2N(C)C)cc1 . 0.1 to 1 µM

Name the recorded EC50 for Cc1cc2[nH]c(=O)c(=O)[nH]c2cc1S(=O)(=O)Nc1ccc(-c2cc(CO)ccc2F)c(Cl)c1 . 0.1 to 1 µM

Name the recorded EC50 for Cc1cc2[nH]c(=O)c(=O)[nH]c2cc1S(=O)(=O)Nc1ccc(-c2ccc(Cl)cc2)c(Cl)c1 . 0.1 to 1 µM

Name the recorded EC50 for COc1cc(OC)cc(-c2ccc(NS(=O)(=O)c3cc4[nH]c(=O)c(=O)[nH]c4cc3C)cc2Cl)c1 . 0.1 to 1 µM

Name the recorded EC50 for O=c1[nH]c2cc(Cl)c(S(=O)(=O)Nc3ccc(Br)c(Cl)c3)cc2[nH]c1=O . 1 to 6 µM

Name the recorded EC50 for Cc1cc2[nH]c(=O)c(=O)[nH]c2cc1S(=O)(=O)Nc1ccc(-c2ccsc2)c(Cl)c1 . 0.1 to 1 µM

Name the recorded EC50 for O=c1[nH]c2cc(F)c(S(=O)(=O)Nc3ccc(C4CC4)cc3)cc2[nH]c1=O . 0.1 to 1 µM

Name the recorded EC50 for CC(C)c1cc2[nH]c(=O)c(=O)[nH]c2cc1S(=O)(=O)Nc1ccc(C(F)(F)F)cc1 . 0.03 to 0.1 µM

----------
# system: S. aureus Alpha hemolysin (Staphylococcus aureus)
# experimentSummary: cell-based
# measurementParameters: A549-LDH Assay activity
pEC50: −log10 of the molar value.
// reported pEC50 per item

Record excerpt, results attached:
CCc1cc2[nH]c(=O)c(=O)[nH]c2cc1S(=O)(=O)Nc1ccc(Br)c(Cl)c1 :: 6.00 to 7.00
Cc1cc2[nH]c(=O)c(=O)[nH]c2cc1S(=O)(=O)Nc1ccc(-c2ccccc2Cl)cc1 :: 6.00 to 7.00
Cc1ccc(-c2ccc(NS(=O)(=O)c3cc4[nH]c(=O)c(=O)[nH]c4cc3C)cc2Cl)cc1C :: 6.00 to 7.00
CCc1cc2[nH]c(=O)c(=O)[nH]c2cc1S(=O)(=O)Nc1ccc(C2CC2)cc1 :: 7.00 to 7.52
Cc1cc2[nH]c(=O)c(=O)[nH]c2cc1S(=O)(=O)Nc1cc(C)c(-c2ccoc2)c(C)c1 :: 7.00 to 7.52

# get_value(readout= pEC50, system= S. aureus Alpha hemolysin (Staphylococcus aureus)) for Cc1cc2[nH]c(=O)c(=O)[nH]c2cc1S(=O)(=O)Nc1ccc(Cc2ccccc2)c(Cl)c1 6.00 to 7.00

# get_value(readout= pEC50, system= S. aureus Alpha hemolysin (Staphylococcus aureus)) for Cc1cc2[nH]c(=O)c(=O)[nH]c2cc1S(=O)(=O)Nc1ccc(-c2ccc(C#N)cc2)c(C(F)(F)F)c1 6.00 to 7.00

# get_value(readout= pEC50, system= S. aureus Alpha hemolysin (Staphylococcus aureus)) for Cc1cc2[nH]c(=O)c(=O)[nH]c2cc1S(=O)(=O)Nc1ccc(-c2ccc(F)cc2)c(N2CCOCC2)c1 5.22 to 6.00

# get_value(readout= pEC50, system= S. aureus Alpha hemolysin (Staphylococcus aureus)) for Cc1cc2[nH]c(=O)c(=O)[nH]c2cc1S(=O)(=O)Nc1ccc(-c2ccc(F)cc2)c(OC(F)(F)F)c1 6.00 to 7.00

# get_value(readout= pEC50, system= S. aureus Alpha hemolysin (Staphylococcus aureus)) for Cc1cc2[nH]c(=O)c(=O)[nH]c2cc1S(=O)(=O)Nc1ccc(N2CCOCC2(C)C)c(Cl)c1 6.00 to 7.00

# get_value(readout= pEC50, system= S. aureus Alpha hemolysin (Staphylococcus aureus)) for Cc1cc(NS(=O)(=O)c2cc3[nH]c(=O)c(=O)[nH]c3cc2Cl)ccc1Br 6.00 to 7.00

# get_value(readout= pEC50, system= S. aureus Alpha hemolysin (Staphylococcus aureus)) for CNc1cc2[nH]c(=O)c(=O)[nH]c2cc1S(=O)(=O)Nc1ccc(OC(F)(F)F)cc1 6.00 to 7.00

# get_value(readout= pEC50, system= S. aureus Alpha hemolysin (Staphylococcus aureus)) for Cc1cc2[nH]c(=O)c(=O)[nH]c2cc1S(=O)(=O)Nc1ccc(-c2ccc(S(C)(=O)=O)cc2F)c(Cl)c1 5.22 to 6.00

# get_value(readout= pEC50, system= S. aureus Alpha hemolysin (Staphylococcus aureus)) for [2H]C([2H])([2H])c1cc2[nH]c(=O)c(=O)[nH]c2cc1S(=O)(=O)Nc1ccc(OC(F)(F)F)cc1 > 7.52

# get_value(readout= pEC50, system= S. aureus Alpha hemolysin (Staphylococcus aureus)) for O=c1[nH]c2cc(F)c(S(=O)(=O)Nc3ccc(-c4cccc(Cl)c4)c(Cl)c3)cc2[nH]c1=O 5.22 to 6.00

----------
# system: S. aureus Alpha hemolysin (Staphylococcus aureus)
# experimentSummary: cell-based
# measurementParameters: A549-LDH Assay activity
measureName: EC50

CC(C)c1cc2[nH]c(=O)c(=O)[nH]c2cc1S(=O)(=O)Nc1ccc(-c2ccsc2)c(Cl)c1 :: 1000 to 6000 nM

Name the recorded EC50 for CC(=O)c1ccccc1-c1ccc(NS(=O)(=O)c2cc3[nH]c(=O)c(=O)[nH]c3cc2C)cc1 . 1000 to 6000 nM

Name the recorded EC50 for CC(C)c1ccc(NS(=O)(=O)c2cc3[nH]c(=O)c(=O)[nH]c3cc2F)cc1 . 100 to 1000 nM

Name the recorded EC50 for CCCc1ccc(NS(=O)(=O)c2cc3[nH]c(=O)c(=O)[nH]c3cc2F)cc1 . 30 to 100 nM

Name the recorded EC50 for Cc1cc2[nH]c(=O)c(=O)[nH]c2cc1S(=O)(=O)Nc1ccc(-c2ccc3cc[nH]c3c2)c(Br)c1 . < 30 nM

Name the recorded EC50 for Cc1cc2[nH]c(=O)c(=O)[nH]c2cc1S(=O)(=O)Nc1ccc(-c2cncnc2)c(Cl)c1 . 100 to 1000 nM

Name the recorded EC50 for COc1ccc(-c2ccc(NS(=O)(=O)c3cc4[nH]c(=O)c(=O)[nH]c4cc3C)cc2Cl)c(F)c1 . 30 to 100 nM

----------
# system: hemolysin alpha from Staphylococcus aureus (Staphylococcus aureus, UniProt P09616)
# Sequence (P09616 27-319 limits assumed): as above
# experimentSummary: cell-based
pEC50: −log10 of the molar value.
measureName: pEC50

Record excerpt, results attached:
Cc1nc2ccc(-c3ccc(NS(=O)(=O)c4cc5[nH]c(=O)c(=O)[nH]c5cc4C)cc3Cl)cc2[nH]1 [Compound 361] :: 7.00 to 7.52
Cc1cc2[nH]c(=O)c(=O)[nH]c2cc1S(=O)(=O)Nc1ccc(C2=CCCCC2)c(Br)c1 [Compound 299] :: 7.00 to 7.52
COc1cc2[nH]c(=O)c(=O)[nH]c2cc1S(=O)(=O)Nc1ccc(Br)cc1 [Compound 383] :: 5.46 to 6.00

Lab note: next compound to report on.
Name the recorded pEC50 for Cc1cc2[nH]c(=O)c(=O)[nH]c2cc1S(=O)(=O)Nc1ccc(N2CCCOCC2)c(Cl)c1 [Compound 208] . 5.46 to 6.00
